These data points were gathered from BindingDB's records for doi:10.1016/S0960-894X(01)80104-9.

tgt: Thromboxane A2 receptor (Homo sapiens, UniProt P21731)
Sequence (P21731 whole entry): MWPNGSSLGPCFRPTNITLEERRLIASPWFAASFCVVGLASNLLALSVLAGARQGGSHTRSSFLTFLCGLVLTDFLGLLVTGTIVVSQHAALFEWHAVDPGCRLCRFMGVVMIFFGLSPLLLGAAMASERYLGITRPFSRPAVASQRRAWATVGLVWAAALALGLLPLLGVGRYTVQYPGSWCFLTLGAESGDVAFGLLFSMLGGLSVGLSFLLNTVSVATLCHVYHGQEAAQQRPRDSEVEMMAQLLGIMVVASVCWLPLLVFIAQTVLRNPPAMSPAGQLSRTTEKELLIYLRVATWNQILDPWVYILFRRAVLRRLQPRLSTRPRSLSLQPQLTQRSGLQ
assay-procedure: In vitro thromboxane receptor antagonist against U-46619 induced aggregation of washed human platelets
measurement-type: pIC50
FYI, pIC50 means -log10 of a concentration in mol per litre.

Entry "O=C(O)CC/C=C\CC[C@H]1[C@@H](OCc2ccc(-c3ccccc3)cc2)CO[C@@H]1c1cccnc1" : pIC50 on Thromboxane A2 receptor (Homo sapiens, UniProt P21731) = 7.55
